The origin of these recorded values is ChEMBL document CHEMBL1121730.

- tested.on: Adrenergic receptor beta (Rattus norvegicus, UniProt P18090+P10608+P26255)
- method: Binding affinity against Beta adrenergic receptor in C6-2B astrocytoma cells, using [125I]-iodohydroxybenzylpindolol-benzylpindolol([125I]-HYP)
- Type: cell-based
Lab note: anything with Kd below 0.05 µM is marked yes (1); values at 0.05 µM or higher are marked no (0).

Solved entries (count: 5):
| molecule | assigned.category |
| --- | --- |
| CC(Oc1ccccc1)C(O)CNC(C)(C)C (stereo not given) | no (0) |
| Cc1ccc(OC(C)C(O)CNC(C)(C)C)cc1C (stereo not given) | no (0) |
| Cc1ccc(OC(C)C(O)CNC(C)C)cc1C (stereo not given) | no (0) |
| C=CCc1ccccc1OC(C)C(O)CNC(C)(C)C (stereo not given) | yes (1) |
| CC(Oc1cccc2ccccc12)C(O)CNC(C)(C)C (stereo not given) | yes (1) |

-- ask Given the entry CC(C)NCC(O)C(C)Oc1ccc(Cl)c(Cl)c1 (stereo not given) , would its reported Kd be below 0.05 µM?
-- reply no (0)

-- ask Given the entry CC(C)NCC(O)C(C)Oc1cccc2ccccc12 (stereo not given) , would its reported Kd be below 0.05 µM?
-- reply yes (1)

-- ask Given the entry CCc1ccc(OC(C)C(O)CNC(C)(C)C)cc1 (stereo not given) , would its reported Kd be below 0.05 µM?
-- reply no (0)

-- ask Given the entry CCc1ccc(OC(C)C(O)CNC(C)C)cc1 (stereo not given) , would its reported Kd be below 0.05 µM?
-- reply no (0)
